target: proteasome from spleen tissue (LMP-2/7/10 isoform, immunoproteasome), chymotrypsin-like (ChT-L) activity (UniProt Q3T112); construct: Ki (μM) Spleen Proteasome, ChT-L component; other: substrate Cbz-GGF-pAB, Dixon plots, without preincubation; other: substrate Cbz-GGF-pAB; assay: Inhibition of ChT-L activity of spleen proteasome (immunoproteasome); type: biochemical; details: substrate Cbz-GGF-pAB, Dixon plots, without preincubation; read-out: Ki (μM) Spleen Proteasome, ChT-L component
Square brackets hold non-standard residues; d marks the D form. Peptide text beside a SMILES is read from it. * marks the point of attachment. hPhe = N[CH](CCc1ccccc1)C(=O)O; Cbz = O=C(OCc1ccccc1)*
Each entry below carries its recorded Ki.

>  <compound>
O=CC(Cc1ccccc1)NC(=O)C(Cc1ccccc1)NC(=O)OCc1ccccc1 (stereo not drawn) [Cbz-FF-CHO] (Cbz-Phe-Phe-aldehyde; configuration not given here)

>  <Ki / µM>
4

$$$$
>  <compound>
O=CC(Cc1ccccc1)NC(=O)C(CCc1ccccc1)NC(=O)OCc1ccccc1 (stereo not shown) [Cbz-hFF-CHO] (Cbz-[hPhe]-Phe-aldehyde; configuration not given here)

>  <Ki / µM>
2.74

$$$$
>  <compound>
CC(C)CC(NC(=O)OCc1ccccc1)C(=O)NC(C=O)Cc1ccccc1 (stereo not drawn) [Cbz-LF-CHO, N-carbobenzyloxy-leucyl-phenylalanylal] (Cbz-Leu-Phe-aldehyde; configuration not given here)

>  <Ki / µM>
5.6

$$$$
>  <compound>
CC(C)CC(C=O)NC(=O)C(C)NC(=O)C(CC(C)C)NC(=O)OCc1ccccc1 (stereo not drawn) [Cbz-LAL-CHO, reference compound] (Cbz-Leu-Ala-Leu-aldehyde; configuration not given here)

>  <Ki / µM>
1.45

$$$$
>  <compound>
CC(C)C[C@@H](C=O)NC(=O)[C@H](CC(C)C)NC(=O)[C@H](CC(C)C)NC(=O)OCc1ccccc1 [Cbz-LLL-CHO, reference compound] (Cbz-Leu-Leu-Leu-aldehyde)

>  <Ki / µM>
5.1

$$$$
>  <compound>
CCCCC(C=O)NC(=O)C(CC(C)C)NC(=O)OCc1ccccc1 (stereo not shown) [Cbz-LnL-CHO, N-carbobenzyloxy-leucyl-norleucinal]

>  <Ki / µM>
1.03

$$$$
>  <compound>
CC(C)CC(C=O)NC(=O)C(Cc1ccccc1)NC(=O)OCc1ccccc1 (stereo not drawn) [Cbz-FL-CHO, reference compound] (Cbz-Phe-Leu-aldehyde; configuration not given here)

>  <Ki / µM>
2.1

$$$$
